MIC overview
# System: P. aeruginosa
# run.description: Broth microdilution MIC (Example 10)
# test.context: P. aeruginosa isolate 1530 (TOB-R, AMK-R, CIP-R); initial MIC testing
I only need the number, in µg/mL, no unit after it.

Illustrative cases are given below, each with its answer.
Asked: Recorded MIC for "NCC[C@H](O)C(=O)N[C@@H]1C[C@H](N)[C@@H](O[C@H]2O[C@H](CN)[C@@H](O)[C@H](O)[C@H]2O)[C@H](O)[C@H]1O[C@H]1O[C@H](CO)[C@@H](O)[C@H](N)[C@H]1O" with P. aeruginosa, please?
Given back: 64

Asked: Recorded MIC for "C[C@H]1[C@H](NC(=O)/C(=N\OC(C)(C)C(=O)O)c2csc(N)n2)C(=O)N1S(=O)(=O)O" with P. aeruginosa, please?
Given back: 4

Further cases:
Asked: Recorded MIC for "NC[C@H]1O[C@H](O[C@H]2[C@H](O)[C@@H](O[C@H]3O[C@H](CO)[C@@H](O)[C@H](N)[C@H]3O)[C@H](N)C[C@@H]2N)[C@H](N)C[C@@H]1O" with P. aeruginosa, please?
Given back: 32

Asked: Recorded MIC for "C[C@@H](O)[C@H]1C(=O)N2C(C(=O)O)=C(S[C@@H]3CN[C@H](C(=O)N(C)C)C3)[C@H](C)[C@H]12" with P. aeruginosa, please?
Given back: 0.5

====

# System: Klebsiella pneumoniae
# run.description: Broth microdilution MIC (Example 12)
# test.context: Klebsiella pneumoniae ATCC BAA-1705, ESBL/KPC
property: MIC (µg/mL)
I only need the number, in µg/mL, no unit after it.

Asked: Query: MIC; subject: NCC[C@H](O)C(=O)N[C@@H]1C[C@H](N)[C@@H](O[C@H]2O[C@H](CN)[C@@H](O)[C@H](O)[C@H]2O)[C@H](O)[C@H]1O[C@H]1O[C@H](CO)[C@@H](O)[C@H](N)[C@H]1O [AMK]
Given back: 16

Now consider the entry below.
Asked: Query: MIC; subject: C[C@@H](O)[C@H]1C(=O)N2C(C(=O)O)=C(S[C@@H]3CN[C@H](C(=O)N(C)C)C3)[C@H](C)[C@H]12 [MEM]
Given back: 8

====

MIC overview
# Test system: beta-hemolytic streptococci (S. pyogenes, S. agalactiae)
# run.description: Broth microdilution MIC (Example 11)
# Assay type: cell-based, Streptococcus pyogenes, Streptococcus agalactiae
# test.context: S. agalactiae MMX 4077, ERY^R CC^R; read-out: MIC
I only need the number, in µg/mL, no unit after it.

Asked: Query: MIC; subject: C[C@@H](O)[C@H]1C(=O)N2C(C(=O)O)=C(S[C@@H]3CN[C@H](C(=O)N(C)C)C3)[C@H](C)[C@H]12 [Meropenem, reference compound]
Given back: 0.06

Asked: Query: MIC; subject: C[C@H]1COc2c(N3CCN(C)CC3)c(F)cc3c(=O)c(C(=O)O)cn1c23 [Levofloxacin, reference compound]
Given back: 0.5

====

# Test system: Pseudomonas aeruginosa
# run.description: Broth microdilution MIC (Example 12)
# test.context: Pseudomonas aeruginosa CDC 230, VIM/OXA
property: MIC (µg/mL)
I only need the number, in µg/mL, no unit after it.

Asked: Query: MIC; subject: "CC(C)(O/N=C(\C(=O)N[C@@H]1C(=O)N2C(C(=O)[O-])=C(C[n+]3ccccc3)CS[C@H]12)c1csc(N)n1)C(=O)O"
Given back: 64

Now consider the entry below.
Asked: Query: MIC; subject: "C[C@H]1COc2c(N3CCN(C)CC3)c(F)cc3c(=O)c(C(=O)O)cn1c23"
Given back: 8

====

# Tested on: beta-hemolytic streptococci (S. pyogenes, S. agalactiae)
# run.description: Broth microdilution MIC (Example 11)
# Type: cell-based, Streptococcus pyogenes, Streptococcus agalactiae
# test.context: S. agalactiae MMX 3743, ERY^R CC^R; read-out: MIC
MIC overview
I only need the number, in µg/mL, no unit after it.

Asked: Query: MIC; subject: C[C@H]1COc2c(N3CCN(C)CC3)c(F)cc3c(=O)c(C(=O)O)cn1c23 [Levofloxacin, reference compound]
Given back: 1

Further cases:
Asked: Query: MIC; subject: C[C@@H](O)[C@H]1C(=O)N2C(C(=O)O)=C(S[C@@H]3CN[C@H](C(=O)N(C)C)C3)[C@H](C)[C@H]12 [Meropenem, reference compound]
Given back: 0.06

====

# Tested on: P. aeruginosa
# run.description: Broth microdilution MIC (Example 10)
# test.context: P. aeruginosa isolate 7762 (MEM-I, CIP-I); initial MIC testing
MIC overview

Asked: Recorded MIC for "C[C@@H](O)[C@H]1C(=O)N2C(C(=O)O)=C(S[C@@H]3CN[C@H](C(=O)N(C)C)C3)[C@H](C)[C@H]12" with P. aeruginosa, please?
Given back: 4 µg/mL

Asked: Recorded MIC for "NC[C@H]1O[C@H](O[C@H]2[C@H](O)[C@@H](O[C@H]3O[C@H](CO)[C@@H](O)[C@H](N)[C@H]3O)[C@H](N)C[C@@H]2N)[C@H](N)C[C@@H]1O" with P. aeruginosa, please?
Given back: 1 µg/mL

Asked: Recorded MIC for "C[C@H]1[C@H](NC(=O)/C(=N\OC(C)(C)C(=O)O)c2csc(N)n2)C(=O)N1S(=O)(=O)O" with P. aeruginosa, please?
Given back: 8 µg/mL

Now consider the entry below.
Asked: Recorded MIC for "NCC[C@H](O)C(=O)N[C@@H]1C[C@H](N)[C@@H](O[C@H]2O[C@H](CN)[C@@H](O)[C@H](O)[C@H]2O)[C@H](O)[C@H]1O[C@H]1O[C@H](CO)[C@@H](O)[C@H](N)[C@H]1O" with P. aeruginosa, please?
Given back: 8 µg/mL

====

MIC overview
# Test system: Pseudomonas aeruginosa
# run.description: Broth microdilution MIC (Example 12)
# test.context: Pseudomonas aeruginosa CDC 246, NDM/OXA

Asked: Query: MIC; subject: "C[C@H]1COc2c(N3CCN(C)CC3)c(F)cc3c(=O)c(C(=O)O)cn1c23"
Given back: >8 µg/mL

Asked: Query: MIC; subject: "NCC[C@H](O)C(=O)N[C@@H]1C[C@H](N)[C@@H](O[C@H]2O[C@H](CN)[C@@H](O)[C@H](O)[C@H]2O)[C@H](O)[C@H]1O[C@H]1O[C@H](CO)[C@@H](O)[C@H](N)[C@H]1O"
Given back: >64 µg/mL

Asked: Query: MIC; subject: "CC(C)(O/N=C(\C(=O)N[C@@H]1C(=O)N2C(C(=O)[O-])=C(C[n+]3ccccc3)CS[C@H]12)c1csc(N)n1)C(=O)O"
Given back: >64 µg/mL

Now consider the entry below.
Asked: Query: MIC; subject: "C[C@@H](O)[C@H]1C(=O)N2C(C(=O)O)=C(S[C@@H]3CN[C@H](C(=O)N(C)C)C3)[C@H](C)[C@H]12"
Given back: >8 µg/mL

====

# Tested on: Acinetobacter baumannii
# run.description: Broth microdilution MIC (Example 12)
# test.context: Acinetobacter baumannii CDC 307, OXA
MIC overview
I only need the number, in µg/mL, no unit after it.

Illustrative cases are given below, each with its answer.
Asked: Query: MIC; subject: "CC(C)(O/N=C(\C(=O)N[C@@H]1C(=O)N2C(C(=O)[O-])=C(C[n+]3ccccc3)CS[C@H]12)c1csc(N)n1)C(=O)O"
Given back: 64

Asked: Query: MIC; subject: "C[C@H]1COc2c(N3CCN(C)CC3)c(F)cc3c(=O)c(C(=O)O)cn1c23"
Given back: 8

Further cases:
Asked: Query: MIC; subject: "C[C@@H](O)[C@H]1C(=O)N2C(C(=O)O)=C(S[C@@H]3CN[C@H](C(=O)N(C)C)C3)[C@H](C)[C@H]12"
Given back: 8

====

# System: Escherichia coli
# run.description: Broth microdilution MIC (Example 12)
# test.context: Escherichia coli MMX 5745, KPC
MIC overview
I only need the number, in µg/mL, no unit after it.

Asked: Query: MIC; subject: C[C@@H](O)[C@H]1C(=O)N2C(C(=O)O)=C(S[C@@H]3CN[C@H](C(=O)N(C)C)C3)[C@H](C)[C@H]12 [MEM]
Given back: 2

Asked: Query: MIC; subject: C[C@H]1COc2c(N3CCN(C)CC3)c(F)cc3c(=O)c(C(=O)O)cn1c23 [LVX]
Given back: 8

Asked: Query: MIC; subject: NCC[C@H](O)C(=O)N[C@@H]1C[C@H](N)[C@@H](O[C@H]2O[C@H](CN)[C@@H](O)[C@H](O)[C@H]2O)[C@H](O)[C@H]1O[C@H]1O[C@H](CO)[C@@H](O)[C@H](N)[C@H]1O [AMK]
Given back: 0.5

Further cases:
Asked: Query: MIC; subject: CC(C)(O/N=C(\C(=O)N[C@@H]1C(=O)N2C(C(=O)[O-])=C(C[n+]3ccccc3)CS[C@H]12)c1csc(N)n1)C(=O)O [CAZ]
Given back: 32
